- assayOverview: Caco-2 permeation assay
- Assay type: in vitro ADME
- details: human, pH 7.2; Caco-2 monolayer, 2 μM test compound, 2 h; read-out: Papp B-A (Mari)
Assign satisfied whenever Papp B→A at 2 h, 2 μM does not fall below 20 ×10⁻⁶ cm/s; assign not satisfied whenever it does.

compound: CS(=O)(=O)N=S(C)(=O)Cc1cc2nc(c1)OCCCOc1cc(F)ccc1-c1cc(ncc1F)N2 (racemic)
classLabel: not satisfied

I'd appreciate it if you could say whether CS(=N)(=O)Cc1cc2nc(c1)OCCCOc1cc(F)ccc1-c1cc(ncc1F)N2 (racemic) has Papp B→A at 2 h, 2 μM at least equal to 20 ×10⁻⁶ cm/s.
not satisfied

Textbook exercise: given the entry `CS(=O)(=O)Cc1cc2nc(c1)OCCCOc1cc(F)ccc1-c1cc(ncc1F)N2` , state whether its Papp B→A at 2 h, 2 μM is greater than or equal to 20 ×10⁻⁶ cm/s.
not satisfied

For this compound, is measured Papp B→A at 2 h, 2 μM 20 ×10⁻⁶ cm/s or higher? CS(=O)(Cc1cc2nc(c1)OCCCOc1cc(F)ccc1-c1cc(ncc1F)N2)=NS(=O)(=O)CCN (racemic)
satisfied

Answer whether Papp B→A at 2 h, 2 μM of CCNC(=O)N=S(C)(=O)Cc1cc2nc(c1)OCCCOc1cc(F)ccc1-c1cc(ncc1F)N2 (racemic) is greater than or equal to 20 ×10⁻⁶ cm/s.
not satisfied

Textbook exercise: given the entry CS(=O)(Cc1cc2nc(c1)OCCCOc1cc(F)ccc1-c1cc(ncc1F)N2)=NC(=O)OCCN (racemic) , state whether its Papp B→A at 2 h, 2 μM is greater than or equal to 20 ×10⁻⁶ cm/s.
satisfied

Decide: is the reported value of Papp B→A at 2 h, 2 μM for `NCCS(=O)(=O)Cc1cc2nc(c1)OCCCOc1cc(F)ccc1-c1cc(ncc1F)N2` equal to or greater than 20 ×10⁻⁶ cm/s?
not satisfied

###

- subjectOfTest: CDK2/CycE (Homo sapiens)
- Construct: GST; purchased ProQinase GmbH (Freiburg, Germany); host or cells: insect cells (Sf9)
- assayOverview: CDK2/CycE kinase assay (TR-FRET, Method 2a)
- Format: biochemical
- details: 10 μM ATP
Recorded IC50 for the following molecules
Give the value in nM but do not write nM after it.

molecule: CS(=O)(Cc1cc2nc(c1)OCCCOc1cc(F)ccc1-c1cc(ncc1F)N2)=NC(=O)OCCCl (racemic)
readoutKind: IC50
readoutNumber: 11.6
--
molecule: CC(=O)N=S(C)(=O)Cc1cc2nc(c1)OCCCOc1cc(F)ccc1-c1cc(ncc1F)N2 (racemic)
readoutKind: IC50
readoutNumber: 8.2
--
molecule: CS(=N)(=O)Cc1cc2nc(c1)OCCOc1cc(F)ccc1-c1cc(ncc1F)N2 (racemic)
readoutKind: IC50
readoutNumber: 180
--
molecule: CS(=O)(Cc1cc2nc(c1)OCCCOc1cc(F)ccc1-c1cc(ncc1F)N2)=NC(=O)OCCN (racemic)
readoutKind: IC50
readoutNumber: 5.6
--
molecule: CS(=N)(=O)Cc1cc2cc(c1)OCCCOc1cc(F)ccc1-c1nc(ncc1F)N2 (racemic)
readoutKind: IC50
readoutNumber: 26

IC50 for `CSCc1cc2nc(c1)OCCOc1cc(F)ccc1-c1cc(ncc1F)N2` ?
18200

Tell me the measured IC50 of CN=S(C)(=O)Cc1cc2nc(c1)OCCCOc1cc(F)ccc1-c1cc(ncc1F)N2 (racemic) , please.
15.4

Field request: IC50 | item: CCNC(=O)N=S(C)(=O)Cc1cc2nc(c1)OCCCOc1cc(F)ccc1-c1cc(ncc1F)N2 (racemic)
5.6

Would you mind telling me what IC50 value was observed for CCOC(=O)N=S(C)(=O)Cc1cc2nc(c1)OCCCOc1cc(F)ccc1-c1cc(ncc1F)N2 (racemic) ?
11.7

Please give the measured IC50 for this molecule: `CSCc1cc2nc(c1)OCCCOc1cc(F)ccc1-c1cc(ncc1F)N2`
41

Endpoint output: IC50 of `CSCc1cc2nc(c1)OCCCCOc1cc(F)ccc1-c1cc(ncc1F)N2` . Value?
114

Return reported IC50; argument: `CS(=O)(=O)Cc1cc2nc(c1)OCCCOc1cc(F)ccc1-c1cc(ncc1F)N2`
5

Entry under review: CS(=N)(=O)Cc1cc2nc(c1)OCCCOc1cc(F)ccc1-c1cc(ncc1F)N2 (single isomer, unassigned; enantiomer 1) [Example 6] . Reported IC50?
2.7

Recorded IC50 of CS(=N)(=O)Cc1cc2cc(c1)OCCCCOc1cc(F)ccc1-c1nc(ncc1F)N2 (racemic) , please.
21.2

Quick check: IC50 of CS(=O)(=O)N=S(C)(=O)Cc1cc2nc(c1)OCCCOc1cc(F)ccc1-c1cc(ncc1F)N2 (racemic) ?
19.3
